Listing: melting point of selected compounds

Structure Smiles String | melting point
CC(C)=CCO[C@H]1NC(=O)[C@@H]1NC(=O)c1ccccc1 | 92 °C
O=C(CC1CCC2(CC1)OOC1(CCCCCCCCCCC1)OO2)N1CCS(=O)(=O)CC1 | 170 to 172 °C
C#CCCn1ncc2c(N)c(C(=O)OCC)c(C)nc21 | 101 to 103 °C

====

In this section we review reported melting point values for a set of compounds.

Structure Smiles String | melting point
CCc1c(Cc2cc(OC)c(OC)c(OC)c2)[nH]c(=O)c(CC(C)C)[n+]1[O-] | 126 to 127 °C
Cc1ccc(-c2c(Cl)ncnc2OCCO)cc1 | 62 to 64 °C
COc1ccc2c(c1)c(CC(=O)OCC(=O)O)c(C)n2C(=O)c1c(F)cccc1F | 186 °C

Origin of the recorded values: a melting point compilation (Tetko et al.; mined from patent text by program, amines drawn as free bases though some values may be those of a salt)
